Consider the following molecules; for each one, report its IC50.
subject-of-test: Hematopoietic prostaglandin D synthase (Homo sapiens)
Sequence (O60760 whole entry): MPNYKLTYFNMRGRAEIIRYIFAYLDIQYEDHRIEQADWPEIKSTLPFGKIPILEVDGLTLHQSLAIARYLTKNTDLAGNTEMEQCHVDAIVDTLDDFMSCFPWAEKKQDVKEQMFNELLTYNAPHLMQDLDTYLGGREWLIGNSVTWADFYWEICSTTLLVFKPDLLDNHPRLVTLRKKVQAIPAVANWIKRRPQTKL
assay-comment: Inhibition fluorescein-conjugated ligand binding to human HPGDS expressed in Escherichia coli by fluorescence polarization assay
Give bare numbers, in nM.

Worked cases, IC50 given:
{"columns": ["smiles-text", "subject-of-test", "readout-units", "test-result"],
 "data": [
  ["CN(C)CCCC(=O)Nc1cncc(-c2cccc3[nH]ccc23)c1", "Hematopoietic prostaglandin D synthase (Homo sapiens)", "nM", 820],
  ["CN(C)CCC(=O)Nc1cncc(-c2cccc3[nH]ccc23)c1", "Hematopoietic prostaglandin D synthase (Homo sapiens)", "nM", 460]
]}

Quick one: give me IC50 for each item below, same order please.
1. COCCCNC(=O)c1nc(-c2cccc3[nH]ccc23)no1
2. COc1cccc(-c2ccc(C(=O)NC3CCN(CC(F)(F)F)CC3)cn2)c1

Reply:
1: 2900; 2: 210

FYI, the data here is from ChEMBL document CHEMBL3425475.
